Reported folding stability dG by item:
B1: EEHEE_rd4_0763 (parent)
chain: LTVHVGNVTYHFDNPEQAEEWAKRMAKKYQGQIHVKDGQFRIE

variants of: B1; assay: folding stability dG (cDNA display proteolysis); higher = more stable; conditions: PBS, room temperature
# unit: kJ/mol | format: bare number

| MUTANT DESIGNATION | folding stability dG [kJ/mol] |
| --- | --- |
| H11L | 6.26 |
| L1T | 8.56 |
| A22D | -0.665 |

Look at this variant and give its reported folding stability dG. "I42K"
3.94

Suppose we examine the variant "E16P" ; what folding stability dG value has been reported?
3.38

Please look up its folding stability dG: "K28Y"
7.18

Recorded folding stability dG for "K28G" , please?
2.9

Which measured folding stability dG value corresponds to "G38R" ?
3.66

// query folding stability dG value for entry "D37T"
2.58

Query: folding stability dG; subject: "K28F"
7

Given the variant "E16S" , what is its reported folding stability dG?
6.75

# get_value(readout='folding stability dG', item= "G38F" )
4.62

These entries and their values trace back to the MegaScale stability set (Tsuboyama et al. 2023).
